Source of measurements: ChEMBL document CHEMBL2413076

Tested on: THP-1
measurementNotes: Growth inhibition of human THP1 cells after 48 hrs by sulforhodamine-B assay
Type: functional, cell-based
conditionSet: THP-1, 48 h
Collected pIC50 values appear next to each entry.
Just the number, please; pIC50 means minus log10 of the concentration in mol/L.

[
  {
    "compoundSmiles": "C[C@H]1[C@H](C)CC[C@]2(C(=O)OCc3cn(-c4ccc(Br)cc4)nn3)CC[C@]3(C)C(=CC[C@@H]4[C@@]5(C)CCC(=O)C(C)(C)[C@@H]5CC[C@]43C)[C@H]12",
    "measuredOn": "THP-1",
    "assayReadout": "pIC50",
    "resultNumber": 6.00
  }
]

Let me check: `C[C@H]1[C@H](C)CC[C@]2(C(=O)OCc3cn(-c4ccc(CC#N)cc4)nn3)CC[C@]3(C)C(=CC[C@@H]4[C@@]5(C)CCC(=O)C(C)(C)[C@@H]5CC[C@]43C)[C@H]12` , system THP-1, measured pIC50 is 4.43

###

Tested on: HCT-116
measurementNotes: Growth inhibition of human HCT116 cells assessed as dead cells at 10 uM after 48 hrs by sulforhodamine-B assay relative to control
Assay type: functional
conditionSet: HCT-116, 48 h, read-out: GI
assayReadout: inhibition of growth at 10 µM (%)
All answers are understood in %, so give the number only.

Consider the following illustrative entries.
[
  {
    "compoundSmiles": "C[C@H]1[C@H](C)CC[C@]2(C(=O)OCc3cn(-c4ccc(Br)cc4)nn3)CC[C@]3(C)C(=CC[C@@H]4[C@@]5(C)CCC(=O)C(C)(C)[C@@H]5CC[C@]43C)[C@H]12",
    "unitSymbol": "%",
    "inhibition of growth at 10 µM": 80
  },
  {
    "compoundSmiles": "Cc1ccc(-n2cc(COC(=O)[C@]34CC[C@@H](C)[C@H](C)[C@H]3C3=CC[C@@H]5[C@@]6(C)CCC(=O)C(C)(C)[C@@H]6CC[C@@]5(C)[C@]3(C)CC4)nn2)cc1C",
    "unitSymbol": "%",
    "inhibition of growth at 10 µM": 91
  },
  {
    "compoundSmiles": "C[C@H]1[C@H](C)CC[C@]2(C(=O)OCc3cn(-c4cccc5ccccc45)nn3)CC[C@]3(C)C(=CC[C@@H]4[C@@]5(C)CCC(=O)C(C)(C)[C@@H]5CC[C@]43C)[C@H]12",
    "unitSymbol": "%",
    "inhibition of growth at 10 µM": 2
  },
  {
    "compoundSmiles": "C[C@H]1[C@H](C)CC[C@]2(C(=O)OCc3cn(-c4ccccc4)nn3)CC[C@]3(C)C(=CC[C@@H]4[C@@]5(C)CCC(=O)C(C)(C)[C@@H]5CC[C@]43C)[C@H]12",
    "unitSymbol": "%",
    "inhibition of growth at 10 µM": 44
  }
]

Now let's try a different one.
response.value for `C[C@H]1[C@H](C)CC[C@]2(C(=O)OCc3cn(-c4ccccc4[N+](=O)[O-])nn3)CC[C@]3(C)C(=CC[C@@H]4[C@@]5(C)CCC(=O)C(C)(C)[C@@H]5CC[C@]43C)[C@H]12` (field: inhibition of growth at 10 µM) = 45

###

We begin with a simple list: items and their reported pIC50.
Test system: THP-1
measurementNotes: Growth inhibition of human THP1 cells after 48 hrs by sulforhodamine-B assay
Type: functional, cell-based
conditionSet: THP-1, 48 h
// scale note: pIC50 = -log10(conc_M); give the bare number

Completed entries (count: 3):
[
  {
    "compoundSmiles": "C[C@H]1[C@H](C)CC[C@]2(C(=O)O)CC[C@]3(C)C(=CC[C@@H]4[C@@]5(C)CC[C@H](O)C(C)(C)[C@@H]5CC[C@]43C)[C@H]12",
    "measuredOn": "THP-1",
    "pIC50": 5.04
  },
  {
    "compoundSmiles": "C[C@H]1[C@H](C)CC[C@]2(C(=O)OCc3cn(-c4ccccc4[N+](=O)[O-])nn3)CC[C@]3(C)C(=CC[C@@H]4[C@@]5(C)CCC(=O)C(C)(C)[C@@H]5CC[C@]43C)[C@H]12",
    "measuredOn": "THP-1",
    "pIC50": 4.32
  },
  {
    "compoundSmiles": "C[C@H]1[C@H](C)CC[C@]2(C(=O)OCc3cn(-c4ccc(F)cc4F)nn3)CC[C@]3(C)C(=CC[C@@H]4[C@@]5(C)CCC(=O)C(C)(C)[C@@H]5CC[C@]43C)[C@H]12",
    "measuredOn": "THP-1",
    "pIC50": 5.96
  }
]

Continue with the next compound.
In plain terms, `C#CCOC(=O)[C@]12CC[C@@H](C)[C@H](C)[C@H]1C1=CC[C@@H]3[C@@]4(C)CCC(=O)C(C)(C)[C@@H]4CC[C@@]3(C)[C@]1(C)CC2` has a documented pIC50 of 4.89
